- Test system: circulatory insufficiency model of rats induced by injection of lauric-acid into their femoral artery
- TEST NAME: Circulatory insufficiency model induced by lauric-acid in rats (lesion index)
- Type: in vivo, rat
- Parameters: key: summed toe lesion grades, +5 if heel reached; max 25 points
- SETUP CONDITIONS: male Wistar rats; 30 mg/kg multiple oral dosing (1 h prior to and 3 h after lauric-acid, then twice daily); 3 days after lauric-acid injection; average, max 25 points
# reported Lesion Index after 3 days; entries follow
The answer should be a number; do not append a unit.

Solved entries:
CCCCCCCCOc1c(O)c2ccc(OCCO)cc2oc1=O
2.6
CCOc1c(O)c2ccc(O)cc2oc1=O
2.4
CCCCC(CC)Oc1c(O)c2ccc(OCCCCO)cc2oc1=O (stereo not shown)
2.9
CC(C)Oc1c(O)c2ccc(O)cc2oc1=O
2.3
CCCOc1c(O)c2ccc(O)cc2oc1=O
2.5
CCCCCCCCCCOc1c(O)c2ccc(OCC(O)CO)cc2oc1=O (stereo not shown)
2.8

Now, please, on to the next compound.
Task: Entry CCCCCCOc1c(O)c2cccc(OCCO)c2oc1=O : reported Lesion Index after 3 days = ?
Result: 3.0
